molecular target: MATE1 (Homo sapiens); experiment: Uptake ratio in MATE1-overexpressing HEK293 cells vs empty vector (2.5 μM, 1 min, HPLC-MS/MS); assay type: cell-based; conditions: fold uptake over empty vector, 2.5 μM, 1 min
Listing of recorded MATE1 ratio by entry.
Parameter measured: MATE1 ratio

>>> print(df.to_string())
                                   compound         tested_system  recorded_value
0  CCCNC(C)C(=O)Nc1c(C)csc1C(=O)OC (stereo not shown) [Articaine]  MATE1 (Homo sapiens)            1.26
1  CC(C)NC[C@H](O)COc1ccc(O)cc1 [Prenalterol]  MATE1 (Homo sapiens)            5.01
2  Cc1ccc(C(=O)Oc2ccc(C(O)CNC(C)(C)C)cc2OC(=O)c2ccc(C)cc2)cc1 (stereo not shown) [Bitolterol]  MATE1 (Homo sapiens)            0.38
3  CN(C)CCCN1c2ccccc2Sc2ccc(Cl)cc21 [Chlorpromazine]  MATE1 (Homo sapiens)            1.42
4  CN1CCC[C@@H]1Cc1c[nH]c2ccc(CCS(=O)(=O)c3ccccc3)cc12 [Eletriptan]  MATE1 (Homo sapiens)            1.41
5    CNC[C@H](O)c1cccc(O)c1 [Phenylephrine]  MATE1 (Homo sapiens)           13.78
6  Cn1c(=O)[nH]c2ncn(C)c2c1=O [Paraxanthine]  MATE1 (Homo sapiens)            1.00
7                       NCCCCN [Putrescine]  MATE1 (Homo sapiens)            0.36
8  CN/C(=N\CCSCc1nc[nH]c1C)NC#N [Cimetidine]  MATE1 (Homo sapiens)           11.52
9  CN[C@@H]1CCc2[nH]c3ccc(C(N)=O)cc3c2C1 [Frovatriptan]  MATE1 (Homo sapiens)           34.35

###

target: MATE1 (Homo sapiens); experiment: Uptake ratio in MATE1-overexpressing HEK293 cells vs empty vector (2.5 μM, 1 min, HPLC-MS/MS); type: cell-based
Listing of entries alongside the reported MATE1 ratio.
Parameter measured: MATE1 ratio

>>> df
                                    molecule  recorded_value
 0  COc1cc2c(cc1OC)-c1c(C)c3ccc(OC)c(OC)c3c[n+]1CC2 [Dehydrocorydaline]            9.25
 1  CC(NC(C)(C)CO)C(=O)c1cccc(Cl)c1 (stereo not shown) [Hydroxybupropion]            1.09
 2  CC(C)(C)NCC(O)c1cc(Cl)c(N)c(Cl)c1 (stereo not shown)            1.11
 3              NCCc1ccc(Oc2ccc(O)cc2)c(I)c1            1.36
 4  COc1cccc2c1C(=O)c1c(O)c3c(c(O)c1C2=O)C[C@@](O)(C(C)=O)C[C@@H]3O[C@H]1C[C@H](N)[C@H](O)[C@H](C)O1            1.21
 5  NCCc1c[nH]c2c(O)cc(O)cc12 [5,7-Dihydroxytryptamine]            1.13
 6  N=C(N)NC(=N)Nc1ccc(Cl)cc1 [1-(4-Chlorophenyl)biguanide]            6.97
 7  C1CCN2C[C@H]3C[C@H](CN4CCCC[C@@H]34)[C@H]2C1 [Sparteine (-), Sparteine]            2.12
 8  CC1(C)C[C@@H]1C(=O)N/C(=C\CCCCSC[C@H](N)C(=O)O)C(=O)O            1.13
 9  C1CCN2C[C@@H]3C[C@@H](CN4CCCC[C@@H]34)[C@H]2C1 [Sparteine (+), Sparteine]            1.62
10                          COc1ccc(CCN)cc1O            3.09
11  CCCCC[C@H](O)/C=C/[C@H]1[C@H](O)CC(=O)[C@@H]1C/C=C\CCCC(=O)O [Prostaglandin E2]            1.35
12  CC(N)[C@H](O)c1ccc(O)c(O)c1 (stereo partly drawn) [Alpha-methylnorepinephrine (-), Alpha-methylnorepinephrine]            1.85
13            C[N+](C)(C)C[C@H](O)CC(=O)[O-]            1.16
14                                   CCCCCCN            1.21
15          CN(C)C(=O)Oc1cccc([N+](C)(C)C)c1           32.31
16      CCOC(=O)[C@]1(c2ccccc2)CCC=C[C@H]1NC            1.19
17  N=C(N)NCCC[C@H](NC(=O)c1ccc2ccccc2c1O)C(=O)N1CCC[C@H]1C(N)=O           19.12
18                  NC(=O)NCCC[C@H](N)C(=O)O            0.77

###

molecular target: MATE1 (Homo sapiens); experiment: Uptake ratio in MATE1-overexpressing HEK293 cells vs empty vector (2.5 μM, 1 min, HPLC-MS/MS); type: cell-based; details: fold uptake over empty vector, 2.5 μM, 1 min
Recorded MATE1 ratio, one value per entry.
Parameter measured: MATE1 ratio

Molecule	Recorded value
Nc1cccc2c1C(=O)N(C1CCC(=O)NC1=O)C2=O (centres unmarked) [Pomalidomide]	1.08
CN(C)CCOC(=O)C(c1ccccc1)C1(O)CCCC1 (centres unmarked) [Cyclopentolate]	1.09
CC[N+](C)(CC)CCOC(=O)C(O)(c1ccccc1)C1CCCCC1 (centres unmarked) [Oxyphenonium]	9.89
CCN1CCCC1CNC(=O)c1cc(S(=O)(=O)CC)c(N)cc1OC [Amisulpride (R), Amisulpride]	8.46
CO[C@H]1/C=C/O[C@@]2(C)Oc3c(C)c(O)c4c(O)c(c(/C=N/N5CCN(C)CC5)c(O)c4c3C2=O)NC(=O)/C(C)=C\C=C\[C@H](C)[C@H](O)[C@@H](C)[C@@H](O)[C@@H](C)[C@H](OC(C)=O)[C@@H]1C [Rifampicin]	1.02
NC(N)=NCc1cccc(I)c1 [m-Iodobenzylguanidin]	3.53
CC(C)NC(=N)NC(=N)Nc1ccc(Cl)cc1 [Proguanil]	5.54
NCCc1cccc(O)c1 [m-Tyramine]	8.90

###

Here the recorded MATE2 (uptake ratio) is given for each entry.
molecular target: UniProtKB Q86VL8; test: Uptake ratio in MATE2K-overexpressing HEK293 cells vs empty vector (2.5 μM, 1 min, HPLC-MS/MS); assay type: cell-based; conditions: mean ratio of uptake in MATE2K-overexpressing HEK293 cells vs empty vector; 2.5 μM, 1 min
Sequence (Q86VL8 1-566 isoform Q86VL8-3): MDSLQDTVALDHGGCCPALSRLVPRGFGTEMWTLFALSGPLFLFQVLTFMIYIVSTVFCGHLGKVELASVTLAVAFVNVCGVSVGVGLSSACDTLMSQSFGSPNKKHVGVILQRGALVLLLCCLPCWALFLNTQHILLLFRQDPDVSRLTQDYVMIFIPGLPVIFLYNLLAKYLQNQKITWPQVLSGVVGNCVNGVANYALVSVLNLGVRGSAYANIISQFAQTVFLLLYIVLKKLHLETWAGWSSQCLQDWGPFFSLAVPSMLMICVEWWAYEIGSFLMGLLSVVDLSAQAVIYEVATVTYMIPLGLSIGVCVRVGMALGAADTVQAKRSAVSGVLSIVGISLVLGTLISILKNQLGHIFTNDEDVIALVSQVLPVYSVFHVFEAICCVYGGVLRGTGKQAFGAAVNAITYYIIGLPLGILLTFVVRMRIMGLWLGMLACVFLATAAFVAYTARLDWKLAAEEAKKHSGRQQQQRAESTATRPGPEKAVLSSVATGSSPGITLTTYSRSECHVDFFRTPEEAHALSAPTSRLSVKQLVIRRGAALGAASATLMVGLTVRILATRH

Compound	MATE2 (uptake ratio)
Nc1ccc2[nH]ncc2c1	0.73
COc1ccc(CC2c3cc(OC)c(OC)cc3CC[N+]2(C)CCC(=O)OCCCCCOC(=O)CC[N+]2(C)CCc3cc(OC)c(OC)cc3C2Cc2ccc(OC)c(OC)c2)cc1OC (centres unmarked)	1.1
CC(C[N+](C)(C)C)OC(N)=O (centres unmarked)	0.97
CC1(C)S[C@@H]2[C@H](NC(=O)[C@H](N)c3ccc(O)cc3)C(=O)N2[C@H]1C(=O)O	0.67
NCCc1ccccc1	1.43
CCN1CCCC1CNC(=O)c1cc(S(=O)(=O)CC)c(N)cc1OC [Amisulpride (R), Amisulpride]	7.4
Oc1ncnc2[nH]ncc12	0.85
CNCCc1ccccn1	1.19
Cc1ccc(C23CNCC2C3)cc1 (centres unmarked)	1.31
CCN1CCCC1CNC(=O)c1cc(S(=O)(=O)CC)c(N)cc1OC (centres unmarked) [Amisulpride]	11.15
Clc1ccc2c(c1)C(N1CCNCC1)=Nc1ccccc1O2	1.33
O=C(O[C@H]1C[N+]2(CCCOc3ccccc3)CCC1CC2)C(O)(c1cccs1)c1cccs1 [Aclidinium]	1.17
CN(C)C(=O)Oc1cc(OC(=O)N(C)C)cc(C(O)CNC(C)(C)C)c1 (centres unmarked)	1.21
NCCC(=O)N[C@@H](Cc1cnc[nH]1)C(=O)O	1.03
NCC(CC(=O)O)c1ccc(Cl)cc1 (centres unmarked)	1.05
Clc1cccc(Cl)c1N=C1NCCN1	1.17
Nc1c(Br)cc(Br)cc1CN[C@H]1CC[C@H](O)CC1	1.32
Cc1cc(O)cc(C)c1OCC(C)N (centres unmarked) [4-Hydroxymexiletine]	1.42
COc1ccccc1OCCNCC(O)COc1cccc2[nH]c3ccccc3c12 [Carvedilol (R), Carvedilol]	1.08
C[C@@H]1O[C@@]2(CS1)CN1CCC2CC1	1.35

###

Molecular target: MATE1 (Homo sapiens, UniProt Q96FL8)
Sequence (Q96FL8 1-570): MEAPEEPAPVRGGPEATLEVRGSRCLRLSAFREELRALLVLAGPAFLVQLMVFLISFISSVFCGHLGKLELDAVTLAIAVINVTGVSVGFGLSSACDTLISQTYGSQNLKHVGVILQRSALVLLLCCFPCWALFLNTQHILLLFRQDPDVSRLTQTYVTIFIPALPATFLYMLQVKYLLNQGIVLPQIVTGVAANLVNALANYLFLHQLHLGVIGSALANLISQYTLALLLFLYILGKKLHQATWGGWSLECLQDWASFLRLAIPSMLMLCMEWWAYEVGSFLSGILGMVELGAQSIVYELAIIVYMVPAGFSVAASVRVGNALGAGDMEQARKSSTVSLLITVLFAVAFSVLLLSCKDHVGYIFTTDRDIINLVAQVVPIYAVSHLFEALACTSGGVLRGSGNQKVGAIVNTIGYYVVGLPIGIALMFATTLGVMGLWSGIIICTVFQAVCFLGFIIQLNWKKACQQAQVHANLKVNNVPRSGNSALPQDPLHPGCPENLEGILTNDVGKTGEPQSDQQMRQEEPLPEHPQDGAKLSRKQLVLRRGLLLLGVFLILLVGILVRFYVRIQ
Test: Concentration-dependent uptake (Michaelis-Menten) via MATE1 in HEK293 cells
Settings: HEK293, 1 min, net uptake
// reported MATE1 Vmax per item
Parameter measured: MATE1 Vmax

>>> print(df.to_string())
                                    compound  parameter_measured                        recorded_value
 0              NCCc1ccc(O)c(O)c1 [Dopamine]          MATE1 Vmax  10,148 pmol × mg protein^–1 × min^–1
 1  CN(C)CCc1c[nH]c2ccc(C[C@H]3COC(=O)N3)cc12 [Zolmitriptan (S), Zolmitriptan]          MATE1 Vmax    2849 pmol × mg protein^–1 × min^–1
 2  CC(CCc1ccc(O)cc1)NCCc1ccc(O)c(O)c1 (stereo not drawn) [Dobutamine]          MATE1 Vmax    2586 pmol × mg protein^–1 × min^–1
 3         Cc1ncc(CO)c(CN)c1O [Pyridoxamine]          MATE1 Vmax    5442 pmol × mg protein^–1 × min^–1
 4  CN(C)CCc1c[nH]c2ccc(C[C@H]3COC(=O)N3)cc12 [Zolmitriptan (R), Zolmitriptan]          MATE1 Vmax    2624 pmol × mg protein^–1 × min^–1
 5      C#CCN[C@@H]1CCc2ccccc21 [Rasagiline]          MATE1 Vmax     194 pmol × mg protein^–1 × min^–1
 6            Cc1ncc(CO)c(CO)c1O [Pyridoxin]          MATE1 Vmax  10,014 pmol × mg protein^–1 × min^–1
 7  Nc1nc(=O)n([C@@H]2CS[C@H](CO)O2)cc1F [Emtricitabine]          MATE1 Vmax    4523 pmol × mg protein^–1 × min^–1
 8   CNC[C@H](O)c1ccc(O)c(O)c1 [Epinephrine]          MATE1 Vmax  22,773 pmol × mg protein^–1 × min^–1
 9     C[C@H]1N=C(N(C)C)N=C(N)N1 [Imeglimin]          MATE1 Vmax    6242 pmol × mg protein^–1 × min^–1
10  Nc1ccn([C@H]2CC[C@@H](CO)O2)c(=O)n1 [Zalcitabine]          MATE1 Vmax  10,171 pmol × mg protein^–1 × min^–1
